B1: NF2 (merlin) isoform 7, human, full length (507 aa, lacks exons 2-3 = isoform-1 residues 39-121; exon-16 C-terminus), P35240-4 (parent)
chain: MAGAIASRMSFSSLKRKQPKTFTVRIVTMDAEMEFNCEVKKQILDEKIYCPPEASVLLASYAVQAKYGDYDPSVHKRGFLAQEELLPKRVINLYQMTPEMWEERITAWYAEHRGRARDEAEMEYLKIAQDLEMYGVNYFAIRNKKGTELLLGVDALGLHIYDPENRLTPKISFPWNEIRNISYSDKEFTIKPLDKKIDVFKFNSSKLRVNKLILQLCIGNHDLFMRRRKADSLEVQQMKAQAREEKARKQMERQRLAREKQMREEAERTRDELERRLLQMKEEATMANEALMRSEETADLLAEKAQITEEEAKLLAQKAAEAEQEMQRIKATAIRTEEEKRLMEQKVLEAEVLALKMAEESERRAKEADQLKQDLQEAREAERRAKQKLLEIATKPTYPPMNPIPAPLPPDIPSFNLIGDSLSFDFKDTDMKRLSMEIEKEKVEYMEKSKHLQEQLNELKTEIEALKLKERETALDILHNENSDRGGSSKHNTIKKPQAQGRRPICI

- Variants of: B1
- protocol.details: reverse yeast two-hybrid deep mutational scan (rY2H-seq): NF2 isoform 7 mutant library as bait mated with wild-type prey strains; selection on medium lacking adenine for non-interacting pairs; NextSeq paired-end sequencing; enrichment vs …
- assay.setup: with KDM1A (lysine-specific histone demethylase 1A; the table's label AOF2 is a gene synonym of KDM1A), O60341; yeast diploids after mating (RBait_S3 x RPrey_S3), 30 °C, selection for reporter genes on NB agar; human tyrosine kinase ABL2 co-expressed as the active kinase …; HIGHER = WEAKER BINDING (the opposite of display enrichments): higher = stronger loss of interaction: reverse Y2H selects yeast in which bait and prey do NOT interact (growth without adenine), so a …; hits-only table; scale: rY2H score; numbering: uniprot, sequence starts at 1
quantity.kind: enrichment

Some variants with recorded enrichment:
INSERT INTO results (mutation_notation, endpoint_result) VALUES
  ('P399E', 2.45),
  ('D299E', 1.51),
  ('A365K', 2),
  ('L342K', 1.63),
  ('R335S', 1.9),
  ('D69K', 6.13),
  ('E38K', 1.85),
  ('Y398A', 3.19),
  ('I329A', 1.81),
  ('E111A', 1.51);

A: L57A
B: E148K
C: E344L
Request: Order the records, beginning with the lowest enrichment and ending with the highest. I'd appreciate it if you listed the labels in the requested order.
Response: B, C, A
